Task for the reader: assign each of the following molecules its reported pIC50.
Keep it numeric: pIC50 is minus log10 of the concentration in mol/L.

What pIC50 appears in the records for this molecule with MAPK11 (Homo sapiens, UniProt Q15759)? NC(=O)CCCOc1ccc2c(c1)C(=O)c1ccc(Nc3ccc(F)cc3F)cc1CC2 [Compound 14a]
Sequence (Q15759 whole entry): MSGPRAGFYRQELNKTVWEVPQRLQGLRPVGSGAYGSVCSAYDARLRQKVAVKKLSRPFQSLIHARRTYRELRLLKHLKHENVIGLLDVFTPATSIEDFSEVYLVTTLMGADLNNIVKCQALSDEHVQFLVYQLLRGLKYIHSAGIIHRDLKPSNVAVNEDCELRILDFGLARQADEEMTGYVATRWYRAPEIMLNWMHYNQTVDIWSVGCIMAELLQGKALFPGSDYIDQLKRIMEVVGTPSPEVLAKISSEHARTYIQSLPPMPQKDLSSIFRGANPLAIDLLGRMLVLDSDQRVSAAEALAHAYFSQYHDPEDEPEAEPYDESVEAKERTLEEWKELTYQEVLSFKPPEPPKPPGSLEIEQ
8.08

What pIC50 appears in the records for this molecule with MAPK11 (Homo sapiens, UniProt Q15759)? Cc1cc(OCCCC(=O)O)cc2c1CCc1cc(Nc3ccc(F)cc3F)ccc1C2=O [Compound 13b]
8.38

What pIC50 appears in the records for this molecule with MAPK11 (Homo sapiens, UniProt Q15759)? Cc1cc(OC[C@H](O)CO)cc2c1CCc1cc(Nc3ccc(F)cc3F)ccc1C2=O [Compound 12b]
7.84

What pIC50 appears in the records for this molecule with MAPK11 (Homo sapiens, UniProt Q15759)? O=C1c2ccc(Nc3ccc(F)cc3F)cc2CCc2ccc(OC[C@@H](O)CO)cc21 [Compound 12c]
7.49

* * *

Task for the reader: assign each of the following molecules its reported pIC50.
Keep it numeric: pIC50 is minus log10 of the concentration in mol/L.

What pIC50 appears in the records for this molecule with MAPK11 (Homo sapiens)? O=C1c2ccc(Nc3ccc(F)cc3F)cc2CCc2ccc(OC3CC(C(=O)O)C3)cc21 (centres unmarked) [Compound 13c]
7.84

What pIC50 appears in the records for this molecule with MAPK11 (Homo sapiens)? Cc1cc(OCCCO)cc2c1CCc1cc(Nc3ccc(F)cc3F)ccc1C2=O [Compound 12e]
7.79

What pIC50 appears in the records for this molecule with MAPK11 (Homo sapiens)? O=C1c2ccc(Nc3ccc(F)cc3F)cc2CCc2ccc(OC[C@H](O)CO)cc21 [Compound 12a, reference compound]
7.72

What pIC50 appears in the records for this molecule with MAPK11 (Homo sapiens)? O=C1c2ccc(Nc3ccc(F)cc3F)cc2CCc2ccc(OCCCO)cc21 [Compound 12d]
7.59

What pIC50 appears in the records for this molecule with MAPK11 (Homo sapiens)? COC(=O)CCCOc1ccc2c(c1)C(=O)c1ccc(Nc3ccc(F)cc3F)cc1CC2 [Compound 12f]
7.21

What pIC50 appears in the records for this molecule with MAPK11 (Homo sapiens)? O=C(O)CCCOc1ccc2c(c1)C(=O)c1ccc(Nc3ccc(F)cc3F)cc1CC2 [Compound 13a]
8.19

* * *

Task for the reader: assign each of the following compounds its reported melting point.

Name the recorded melting point for O=C(O)CCCOc1cccc(S(=O)(=O)c2ccc(Nc3ccc(F)cc3F)cc2)c1 .
132.6 to 133.1 °C

Name the recorded melting point for O=S(=O)(c1ccc(Nc2ccc(F)cc2F)cc1)c1cccc(OC[C@@H](O)CO)c1 [Compound 23c] .
136.3 to 136.7 °C

Name the recorded melting point for O=C1c2ccc(Nc3ccc(F)cc3F)cc2CCc2ccc(OC3CC(C(=O)O)C3)cc21 (stereo not drawn) [Compound 13c] .
145.3 to 145.9 °C

Name the recorded melting point for Cc1cc(OCCCO)cc2c1CCc1cc(Nc3ccc(F)cc3F)ccc1C2=O [Compound 12e] .
127.2 to 127.7 °C

Name the recorded melting point for O=S(=O)(c1ccc(Nc2ccc(F)cc2F)cc1)c1cccc(OC[C@H](O)CO)c1 [Compound 23b] .
135.9 to 136.6 °C

Name the recorded melting point for Cc1cc(OCCCC(=O)O)cc2c1CCc1cc(Nc3ccc(F)cc3F)ccc1C2=O [Compound 13b] .
120.4 to 120.6 °C

Name the recorded melting point for COC(=O)CCCOc1ccc2c(c1)C(=O)c1ccc(Nc3ccc(F)cc3F)cc1CC2 [Compound 12f] .
124.6 to 125 °C

Name the recorded melting point for COC(=O)CCCOc1cccc(S(=O)(=O)c2ccc(Nc3ccc(F)cc3F)cc2)c1 [Compound 23d] .
126.8 to 127.4 °C

Name the recorded melting point for Cc1cc(OC[C@H](O)CO)cc2c1CCc1cc(Nc3ccc(F)cc3F)ccc1C2=O [Compound 12b] .
135.1 to 135.8 °C
